# collection of IC50 values tested on PI3K δ (Homo sapiens (Human))
# Sequence (O00329 whole entry): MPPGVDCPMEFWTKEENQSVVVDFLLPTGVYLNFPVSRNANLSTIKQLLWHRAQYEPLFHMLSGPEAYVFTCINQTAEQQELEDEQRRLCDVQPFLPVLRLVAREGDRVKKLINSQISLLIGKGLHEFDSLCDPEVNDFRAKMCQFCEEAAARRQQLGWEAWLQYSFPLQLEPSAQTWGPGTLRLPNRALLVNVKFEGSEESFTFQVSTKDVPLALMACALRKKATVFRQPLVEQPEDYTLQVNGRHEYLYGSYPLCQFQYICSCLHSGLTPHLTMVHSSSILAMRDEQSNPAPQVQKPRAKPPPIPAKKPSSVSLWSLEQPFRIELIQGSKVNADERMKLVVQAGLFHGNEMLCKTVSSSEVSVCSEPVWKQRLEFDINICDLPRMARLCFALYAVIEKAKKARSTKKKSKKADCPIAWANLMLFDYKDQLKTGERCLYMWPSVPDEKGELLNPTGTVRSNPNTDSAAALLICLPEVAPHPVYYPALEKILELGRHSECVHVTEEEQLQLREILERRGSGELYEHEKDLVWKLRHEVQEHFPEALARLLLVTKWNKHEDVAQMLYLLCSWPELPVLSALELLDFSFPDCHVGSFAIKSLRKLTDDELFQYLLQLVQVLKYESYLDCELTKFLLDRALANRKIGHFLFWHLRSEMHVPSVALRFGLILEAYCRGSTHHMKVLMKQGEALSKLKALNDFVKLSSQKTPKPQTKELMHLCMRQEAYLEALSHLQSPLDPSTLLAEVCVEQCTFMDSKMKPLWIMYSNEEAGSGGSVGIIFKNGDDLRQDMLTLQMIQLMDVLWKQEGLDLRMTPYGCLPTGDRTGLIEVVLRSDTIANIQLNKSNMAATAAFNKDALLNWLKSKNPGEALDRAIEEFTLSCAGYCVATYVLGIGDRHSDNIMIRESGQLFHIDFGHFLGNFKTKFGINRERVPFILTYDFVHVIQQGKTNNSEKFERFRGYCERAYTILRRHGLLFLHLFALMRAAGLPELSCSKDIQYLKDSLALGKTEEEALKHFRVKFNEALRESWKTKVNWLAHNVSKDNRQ
# Sequence (P27986 whole entry partner): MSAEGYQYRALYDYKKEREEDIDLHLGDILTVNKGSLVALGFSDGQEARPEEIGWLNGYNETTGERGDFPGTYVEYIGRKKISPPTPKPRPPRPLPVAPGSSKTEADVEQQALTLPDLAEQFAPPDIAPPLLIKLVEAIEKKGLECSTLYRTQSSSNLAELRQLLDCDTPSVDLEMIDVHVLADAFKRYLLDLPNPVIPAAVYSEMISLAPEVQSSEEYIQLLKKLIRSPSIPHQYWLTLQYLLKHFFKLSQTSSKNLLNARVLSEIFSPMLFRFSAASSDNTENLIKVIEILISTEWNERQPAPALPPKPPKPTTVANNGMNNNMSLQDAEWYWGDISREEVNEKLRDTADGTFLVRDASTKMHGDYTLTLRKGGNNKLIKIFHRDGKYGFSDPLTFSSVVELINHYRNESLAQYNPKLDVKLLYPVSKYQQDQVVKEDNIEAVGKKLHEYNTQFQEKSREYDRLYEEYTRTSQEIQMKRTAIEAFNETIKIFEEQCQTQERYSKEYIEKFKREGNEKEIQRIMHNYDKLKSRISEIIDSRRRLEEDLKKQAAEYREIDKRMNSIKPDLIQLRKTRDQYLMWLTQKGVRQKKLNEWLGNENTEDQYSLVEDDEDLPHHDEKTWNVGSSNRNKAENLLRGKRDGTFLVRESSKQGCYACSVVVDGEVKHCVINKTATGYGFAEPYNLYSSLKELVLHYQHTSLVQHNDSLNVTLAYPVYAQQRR

Past entries and their recorded results:
Which IC50 value belongs to "CC1(C)CN(C2CN(c3cnc4ccc(-c5ccc6oc(N)nc6c5)nc4c3)C2)CCN1" ? < 1 µM

Which IC50 value belongs to "Nc1nc2cc(-c3ccc4ncn(C5CCOCC5)c(=O)c4c3)ccc2o1" ? > 10 µM

Which IC50 value belongs to "Nc1ccc2cc(-c3ccc4nccc(-c5ccncc5)c4c3)ccc2n1" ? < 10 µM

---
Which IC50 value belongs to "Nc1nc2ccc(-c3ccc4ncc(C(=O)N5CCOCC5)n4c3)cc2s1" ? < 10 µM

Which IC50 value belongs to "Nc1nc2cc(-c3ccc4ncnc(OC5CCOCC5)c4c3)ccc2o1" ? < 1 µM

Which IC50 value belongs to "CN1CCN(c2cnc3ccc(-c4ccc5oc(N)nc5c4)nc3n2)CC1" ? < 10 µM

Which IC50 value belongs to "CNC(=O)CN1CCN(c2cnc3ccc(-c4ccc5oc(N)nc5c4)cc3n2)CC1" ? < 10 µM

Which IC50 value belongs to "Nc1nc2cc(-c3ccc4ncc(N5CCOCC5)nc4n3)ccc2o1" ? > 10 µM

Which IC50 value belongs to "CCN1CCC(n2cnc3ccc(-c4ccc5oc(N)nc5c4)cc3c2=O)CC1" ? > 10 µM

Which IC50 value belongs to "Nc1nc2cc(-c3ccc4ncc(-c5ccc(N6CCOCC6)nc5)nc4c3)ccc2o1" ? > 10 µM

----------
pIC50: −log10 of the molar value.
# collection of pIC50 values tested on mTORC (Homo sapiens (Human))
# Sequence (P42345 1360-2549): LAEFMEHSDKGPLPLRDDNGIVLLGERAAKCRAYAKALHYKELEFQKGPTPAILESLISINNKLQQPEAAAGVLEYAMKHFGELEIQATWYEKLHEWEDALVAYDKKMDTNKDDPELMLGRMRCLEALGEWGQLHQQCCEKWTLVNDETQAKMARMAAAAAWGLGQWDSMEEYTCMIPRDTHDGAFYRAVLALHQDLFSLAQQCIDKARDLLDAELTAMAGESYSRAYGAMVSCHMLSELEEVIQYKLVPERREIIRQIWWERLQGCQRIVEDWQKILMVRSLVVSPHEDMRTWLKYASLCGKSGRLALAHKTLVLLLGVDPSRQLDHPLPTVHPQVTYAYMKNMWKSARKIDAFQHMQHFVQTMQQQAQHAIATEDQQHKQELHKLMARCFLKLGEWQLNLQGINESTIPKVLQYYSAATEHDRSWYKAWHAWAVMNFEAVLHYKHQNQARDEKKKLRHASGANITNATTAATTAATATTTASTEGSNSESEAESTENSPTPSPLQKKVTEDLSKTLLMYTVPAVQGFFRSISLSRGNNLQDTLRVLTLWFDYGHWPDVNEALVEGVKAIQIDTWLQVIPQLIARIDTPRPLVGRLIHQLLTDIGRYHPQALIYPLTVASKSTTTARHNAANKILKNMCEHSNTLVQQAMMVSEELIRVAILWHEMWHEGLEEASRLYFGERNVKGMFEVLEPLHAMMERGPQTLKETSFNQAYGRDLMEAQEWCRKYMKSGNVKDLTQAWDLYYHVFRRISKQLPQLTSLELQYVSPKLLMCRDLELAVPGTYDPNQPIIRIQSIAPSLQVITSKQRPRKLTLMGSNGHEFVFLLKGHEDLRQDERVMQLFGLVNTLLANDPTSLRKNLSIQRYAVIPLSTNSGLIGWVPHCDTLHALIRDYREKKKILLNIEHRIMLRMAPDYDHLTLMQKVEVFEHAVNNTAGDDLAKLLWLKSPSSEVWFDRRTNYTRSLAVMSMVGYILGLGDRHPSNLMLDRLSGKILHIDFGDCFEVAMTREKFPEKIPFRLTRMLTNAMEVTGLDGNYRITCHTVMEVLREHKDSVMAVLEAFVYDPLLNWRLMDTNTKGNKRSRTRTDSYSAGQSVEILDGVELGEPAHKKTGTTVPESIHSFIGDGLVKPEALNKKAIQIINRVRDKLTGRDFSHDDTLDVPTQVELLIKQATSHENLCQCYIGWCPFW

Look up pIC50 with mTORC (Homo sapiens (Human)) for this compound: "Nc1nc2cc(-c3ccc4ncc(N5CC(N6CCN(CCO)CC6)C5)nc4c3)ccc2o1" < 5.00

Look up pIC50 with mTORC (Homo sapiens (Human)) for this compound: "Nc1nc2cc(-c3ccn4ncc(-c5ccncc5)c4n3)ccc2o1" > 7.00

Look up pIC50 with mTORC (Homo sapiens (Human)) for this compound: "C[C@H]1COCCN1C1CN(c2cnc3ccc(-c4ccc5oc(N)nc5c4)nc3n2)C1" < 5.00

---
Look up pIC50 with mTORC (Homo sapiens (Human)) for this compound: "N#Cc1cnc2ccc(-c3ccc4oc(N)nc4c3)cc2c1" > 5.00

Look up pIC50 with mTORC (Homo sapiens (Human)) for this compound: "CC(C)(N)C(=O)N1CCN(c2cnc3ccc(-c4ccc5oc(N)nc5c4)nc3n2)CC1" < 5.00

Look up pIC50 with mTORC (Homo sapiens (Human)) for this compound: "Nc1nc2cc(-c3ccc4ncc(N5CC(N6CCN(CC7CC7)CC6)C5)nc4c3)ccc2o1" < 5.00

Look up pIC50 with mTORC (Homo sapiens (Human)) for this compound: "Nc1nc2cc(-c3ccc4ncc(C(=O)N5CCOCC5)n4c3)ccc2o1" > 5.00

Look up pIC50 with mTORC (Homo sapiens (Human)) for this compound: CN(C)CC(=O)N1CCN(c2cnc3ccc(-c4ccc5oc(N)nc5c4)cc3n2)CC1 [drawing 329] < 5.00

Look up pIC50 with mTORC (Homo sapiens (Human)) for this compound: "Nc1nc2cc(-c3ccc4ncc(N5CCC(N6CCOCC6)CC5)nc4c3)ccc2o1" < 5.00

Look up pIC50 with mTORC (Homo sapiens (Human)) for this compound: CN1CCN(C(=O)C2CN(c3cnc4ccc(-c5ccc6oc(N)nc6c5)cc4n3)C2)CC1 [drawing 360] > 5.00
